Ref: ChEMBL document CHEMBL3507680

Assay: Human HepG2 cell viability assay in 384 well format
Assay type: toxicity, cell-based
Design: dose 125 nL, time 70.5 hour; concentration not given beside the values
Settings: HepG2 cells, read-out: Inhibition
Each record here notes measured cytotoxicity at 70.5 h.
The reply should be a number in %, with the unit left off.

// solved cases for cytotoxicity at 70.5 h follow
Task: Answer with the recorded cytotoxicity at 70.5 h for the molecule listed here: Cc1ccsc1CN(C)c1nc2c(cnn2C(C)(C)C)c(=O)[nH]1
Result: -4.96

Task: # return recorded cytotoxicity at 70.5 h for input CCNc1ncc(CN2C[C@@H](C(=O)O)[C@H](C3CC3)C2)cn1
Result: -7.25

Task: Annotate the molecule Cc1cc(=O)[nH]c(CCNC(=O)C(c2ccc(F)cc2)N(C)C)n1 (stereo unspecified) with its measured cytotoxicity at 70.5 h.
Result: 4.61

Task: For the molecule COCc1nc(C(=O)N2CCCC2c2cc(C)on2)cs1 (stereo unspecified) , give its reported cytotoxicity at 70.5 h.
Result: -9.83

Task: Supply cytotoxicity at 70.5 h value. Item: COc1ccccc1S(=O)(=O)NCC(c1cccn1C)N(C)C (stereo unspecified)
Result: -2.15

Task: Check the records and state cytotoxicity at 70.5 h for COC(C)C(=O)N(CC(N)=O)Cc1cccc(Oc2ccccc2)c1 (stereo unspecified)
Result: -2.39

***
Task: Return the recorded cytotoxicity at 70.5 h value; entry: Cc1cccc(Sc2nccn(C)c2=O)c1
Result: -13.8

Task: # return recorded cytotoxicity at 70.5 h for input CN(Cc1cccc(OC(F)(F)F)c1)C(=O)Cc1ccon1
Result: -13.6

Task: Look up and report measured cytotoxicity at 70.5 h for this entry: COc1ccnc(N2CCN(Cc3nc(-c4ccoc4)no3)CC2)c1
Result: -0.129

Task: Annotate the molecule Cc1ccc(F)c2c1N(C(=O)c1cn(CC(=O)N(C)C)nn1)CCC2 with its measured cytotoxicity at 70.5 h.
Result: -10.6

Task: Specify measured cytotoxicity at 70.5 h for NC(=O)CCn1cc(CNCc2csc(N)n2)c2ccccc21 .
Result: -2.33
